Biological target: G-protein coupled receptor 3 (Homo sapiens, UniProt P46089)
Sequence (P46089 whole entry): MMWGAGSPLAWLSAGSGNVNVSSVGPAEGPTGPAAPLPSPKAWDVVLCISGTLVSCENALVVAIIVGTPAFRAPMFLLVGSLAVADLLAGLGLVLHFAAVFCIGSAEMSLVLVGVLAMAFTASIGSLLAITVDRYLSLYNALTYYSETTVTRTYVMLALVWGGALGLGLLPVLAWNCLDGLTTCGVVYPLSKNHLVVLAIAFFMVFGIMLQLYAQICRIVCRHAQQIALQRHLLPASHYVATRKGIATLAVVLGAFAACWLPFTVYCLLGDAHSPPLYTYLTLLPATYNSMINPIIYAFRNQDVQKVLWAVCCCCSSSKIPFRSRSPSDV
Test: Competitive total binding affinity to N-terminal 3xHA/Nluc-tagged full-length wild-type human GPR3 expressed in HEK293A cells using furimazine as substrate at 1 uM measured for 3 hrs in presence of AF64394 by NanoBRET assay
Type: cell-based, HEK293-A
assay-metric: IC50 (nM)
Answers are plain numbers, in nM.

Just so you know, measured IC50 for CC(C)Oc1cc(Cl)ccc1CNc1cc(-c2ccccc2OCCCCCCNC(=O)c2ccc(-c3c4ccc(N(C)C)cc4[o+]c4cc(N(C)C)ccc34)c(C(=O)[O-])c2)nc2ncnn12 came out at 1260

----------
Target: G-protein coupled receptor 3 (Homo sapiens)
Test: Binding affinity to N-terminal 3xHA/Nluc-tagged full-length wild-type human GPR3 expressed in HEK293A cells using vivazine as substrate measured for 180 mins by time-course saturation based NanoBRET assay
Assay type: cell-based
Details: HEK293-A
Calls of active or inactive are those of the source. No cut-off for these calls is given here.
Result category, one only: true (active), false (inactive)

CC(C)Oc1cc(Cl)ccc1CNc1cc(-c2cccc(OCCCCCCNC(=O)c3ccc(-c4c5ccc(N(C)C)cc5[o+]c5cc(N(C)C)ccc45)c(C(=O)[O-])c3)c2)nc2ncnn12 | true
COCC[N+]1=C(/C=C/C=C2/N(CCCCCC(=O)NCCOCCOCCOCCOc3ccc(-c4cc(NCc5ccc(Cl)cc5OC(C)C)n5ncnc5n4)cc3)c3ccc(S(=O)(=O)O)cc3C2(C)CCCS(=O)(=O)O)C(C)(CCCS(=O)(=O)O)c2cc(S(=O)(=O)[O-])ccc21 (configuration not stated) | false
COCC[N+]1=C(/C=C/C=C2/N(CCCCCC(=O)NCCOCCOCCOCCOc3cccc(-c4cc(NCc5ccc(Cl)cc5OC(C)C)n5ncnc5n4)c3)c3ccc(S(=O)(=O)O)cc3C2(C)CCCS(=O)(=O)O)C(C)(CCCS(=O)(=O)O)c2cc(S(=O)(=O)[O-])ccc21 (configuration not stated) | false
CC(C)Oc1cc(Cl)ccc1CNc1cc(-c2ccccc2OCCOCCOCCOCCOCCOCCNC(=O)c2ccc(-c3c4ccc(N(C)C)cc4[o+]c4cc(N(C)C)ccc34)c(C(=O)[O-])c2)nc2ncnn12 | true
COCC[N+]1=C(/C=C/C=C2/N(CCCCCC(=O)NCCOCCOCCOCCOCCOCCOc3ccccc3-c3cc(NCc4ccc(Cl)cc4OC(C)C)n4ncnc4n3)c3ccc(S(=O)(=O)O)cc3C2(C)CCCS(=O)(=O)O)C(C)(CCCS(=O)(=O)O)c2cc(S(=O)(=O)[O-])ccc21 (configuration not stated) | false

Please let me know the test result on file for CC(C)Oc1cc(Cl)ccc1CNc1cc(-c2ccc(OCCOCCOCCOCCNC(=O)c3ccc(-c4c5ccc(N(C)C)cc5[o+]c5cc(N(C)C)ccc45)c(C(=O)[O-])c3)cc2)nc2ncnn12 .
true

Please let me know the test result on file for CC(C)Oc1cc(Cl)ccc1CNc1cc(-c2ccccc2OCCOCCOCCOCCNC(=O)CCCCCN2/C(=C/C=C/C3=[N+](CCOO)c4ccc(S(=O)(=O)O)cc4C3(C)CCCS(=O)(=O)[O-])C(C)(CCCS(=O)(=O)O)c3cc(S(=O)(=O)O)ccc32)nc2ncnn12 (configuration not stated) .
false

----------
Biological target: G-protein coupled receptor 6 (Homo sapiens)
Sequence (P46095 whole entry): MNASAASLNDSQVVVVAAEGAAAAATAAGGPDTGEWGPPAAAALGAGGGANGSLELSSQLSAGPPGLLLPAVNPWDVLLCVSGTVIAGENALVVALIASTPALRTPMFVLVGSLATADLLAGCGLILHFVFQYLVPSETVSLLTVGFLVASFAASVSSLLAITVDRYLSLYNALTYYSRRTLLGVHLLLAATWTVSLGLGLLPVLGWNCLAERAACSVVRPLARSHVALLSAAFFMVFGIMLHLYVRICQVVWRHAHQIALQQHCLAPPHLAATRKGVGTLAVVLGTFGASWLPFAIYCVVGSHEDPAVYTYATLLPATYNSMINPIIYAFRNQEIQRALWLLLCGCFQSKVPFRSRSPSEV
Assay: Competitive total binding affinity to full-length wild-type human brain GPR6 expressed in HEK293A cells using furimazine as substrate at 1 uM measured for 3 hrs in presence of CVN424 by NanoBRET assay
assay-metric: Ki (µM)
Numbers only, in µM.

Just so you know, measured Ki for CC(C)Oc1cc(Cl)ccc1CNc1cc(-c2ccccc2OCCCCCCNC(=O)c2ccc(-c3c4ccc(N(C)C)cc4[o+]c4cc(N(C)C)ccc34)c(C(=O)[O-])c2)nc2ncnn12 came out at 0.0132
